assay: in vitro; conditions: human, hela cells, % viability
Overview of reported viability at 28.5 h, 10 µM across a group of compounds:
Reply with just the number (in %).

>>> df
                                   compound           reported_property  observed_result
0  O=S(=O)(c1cccc(C(F)(F)F)c1)N1CCN(Cc2ccc3c(c2)OCO3)CC1  viability at 28.5 h, 10 µM             89.8
1  CN1CCN(C(=O)CCCN2C(=O)c3cccc4cccc(c34)C2=O)CC1  viability at 28.5 h, 10 µM             96.9
2  O=c1cc(N2CCN(c3ccccc3)CC2)[nH]c(=O)n1-c1ccccc1Cl  viability at 28.5 h, 10 µM              101
3  CN(C)c1cccc(-c2cnc3[nH]c(=O)n(-c4ccc5[nH]ccc5c4)c3n2)c1  viability at 28.5 h, 10 µM              103
4             O=C(O)c1c[nH]nc1-c1cccc(Br)c1  viability at 28.5 h, 10 µM             91.1

Exam item: I'd like to know its viability at 28.5 h, 10 µM. The compound in question is CCC(=O)N1CCCC1c1nc(C)c2c(n1)N(CCc1ccccc1OC)CCC2 (stereo not shown)
Marked response: 95.4

Exam item: I'd like to know its viability at 28.5 h, 10 µM. The compound in question is "O=c1ccc(-c2ccccc2)nn1CC1CCNCC1"
Marked response: 98.6

Exam item: I'd like to know its viability at 28.5 h, 10 µM. The compound in question is "O=C(Nc1cccc2[nH]ccc12)c1ccc2c(c1)OCCO2"
Marked response: 85.7

* * *

assay: in vitro; conditions: human, hela cells, % viability
reported.property: viability at 28.5 h, 10 µM (%)
Reply with just the number (in %).

Exam item: I'd like to know its viability at 28.5 h, 10 µM. The compound in question is "CN(C)c1ccc(-c2noc([C@@H]3CCCN3C)n2)cn1"
Marked response: 104

* * *

assay: in vitro; conditions: human, hela cells, % viability
Overview of reported viability at 28.5 h, 10 µM across a group of compounds:
Reply with just the number (in %).

Some entries whose results are on file:
In [3]: df
Out[3]:
                                   compound  observed_result
0  O=C1N(CN2CCN(c3cccc(C(F)(F)F)c3)CC2)c2ccccc2C12OCCCO2               99
1  O=S(=O)(Nc1cccc(OC(F)(F)F)c1)c1ccc(N2CCNCC2)c2ccccc12 [CBK003935C]              111
2             NC(=S)Nc1nc(-c2ccc(Br)cc2)cs1              100
3  c1ccc2c(c1)OCC(COc1nccnc1OC1CCNCC1)O2 (stereo not drawn) [CBK070766T]              102
4        Cc1ccccc1C(=O)NCC(=O)Nc1ccc(Cl)nc1              103

Exam item: I'd like to know its viability at 28.5 h, 10 µM. The compound in question is C[C@@H]1C[C@H](C)CN(C(C(=O)O)c2c[nH]c3ccccc23)C1 (stereo partly drawn)
Marked response: 94.3

Exam item: I'd like to know its viability at 28.5 h, 10 µM. The compound in question is "O=C(O)c1ccc(-c2c(Cl)cc([N+](=O)[O-])cc2Cl)o1"
Marked response: 102

Exam item: I'd like to know its viability at 28.5 h, 10 µM. The compound in question is "CC(C)(C)NC(=O)Cn1cncc1-c1ccc2c(c1)CC(C)(C)O2"
Marked response: 113

Exam item: I'd like to know its viability at 28.5 h, 10 µM. The compound in question is "Cc1ccc(C2(O)CCN(Cc3cnn(C)c3C)CC2)cc1"
Marked response: 96.5

* * *

Overview of reported viability at 28.5 h, 10 µM across a group of compounds:
assay: in vitro; conditions: human, hela cells, % viability
Reply with just the number (in %).

>>> df
                                  compound           reported_property  observed_result
0  Clc1ccc(Nc2ncnc3ccccc23)cc1 [CBK072625]  viability at 28.5 h, 10 µM             86.1

Exam item: I'd like to know its viability at 28.5 h, 10 µM. The compound in question is Cc1cccc(NC(=O)NCCCn2c(-c3ccncc3)nc3cccnc32)c1 [CBK288580]
Marked response: 97.5

Exam item: I'd like to know its viability at 28.5 h, 10 µM. The compound in question is NC(=O)CN(CC(N)=O)S(=O)(=O)c1ccccc1 [CBK262490]
Marked response: 85.4

Exam item: I'd like to know its viability at 28.5 h, 10 µM. The compound in question is CS(=O)(=O)N1CCN(c2ccc(NC(=O)COc3ccc4ccccc4c3)cc2)CC1 [CBK266450]
Marked response: 96.8

Exam item: I'd like to know its viability at 28.5 h, 10 µM. The compound in question is COC(=O)c1cc(NC(=O)c2cc(-c3ccc(C)o3)nc3ccccc23)cc(C(=O)OC)c1 [CBK265400]
Marked response: 86.3

* * *

test: in vitro; details: human, hela cells, % viability
reported.property: viability at 28.5 h, 10 µM (%)
Reply with just the number (in %).

Some entries whose results are on file:
>>> print(df.to_string())
                                   molecule  observed_result
0  COc1ccc(/C=C2\S/C(=N\Cc3ccccc3)N(Cc3ccccc3)C2=O)cc1C(=O)O              104
1  CSc1ccccc1NC(=O)CN(c1ccc(F)cc1)S(=O)(=O)c1ccc2c(c1)OCCO2              101
2  COc1ccc(NC(=O)CC2SC(NC3CCCCC3)=NC2=O)c(OC)c1 (centres unmarked)             93.7
3  CC(NC(=O)c1cnc(-c2cccc(C(F)(F)F)c2)c(-c2ccncc2)c1)c1ccc(F)cc1 (centres unmarked)             99.7
4  O=c1[nH]c(CSc2nnc(CCCOc3ccc(Cl)cc3Cl)o2)nc2ccccc12             97.2
5              CCn1cc(Br)c(C(=O)Nc2nccs2)n1             96.8

Exam item: I'd like to know its viability at 28.5 h, 10 µM. The molecule in question is "O=C(CNC(=O)c1cccc(F)c1)N/N=C1/C(=O)N(Cc2ccc3c(c2)OCO3)c2ccccc21"
Marked response: 102

Exam item: I'd like to know its viability at 28.5 h, 10 µM. The molecule in question is "COc1ccc(S(=O)(=O)NCCNC(=O)c2cc(-c3cccc(S(C)(=O)=O)c3)cnc2NCC2CC2)cc1"
Marked response: 94.6

Exam item: I'd like to know its viability at 28.5 h, 10 µM. The molecule in question is "CCCCN(C)c1nccnc1-c1ccc(CO)cc1"
Marked response: 92.3

Exam item: I'd like to know its viability at 28.5 h, 10 µM. The molecule in question is "CC(C)(C)C(=O)NC(=S)Nc1ccc(Cc2ccncc2)cc1"
Marked response: 91.5

Exam item: I'd like to know its viability at 28.5 h, 10 µM. The molecule in question is "CCC(=O)Oc1ccc(/N=C2/NC(C)(C)O2)cc1"
Marked response: 87.6

Exam item: I'd like to know its viability at 28.5 h, 10 µM. The molecule in question is "CS(=O)(=O)N1CC2(CCN(CC(N)=O)CC2)c2ccccc21"
Marked response: 81.5

Exam item: I'd like to know its viability at 28.5 h, 10 µM. The molecule in question is "Cc1cccc(Oc2ccccc2NS(=O)(=O)c2ccc3c(c2)N(CC(=O)O)C(=O)CO3)c1"
Marked response: 92.1

* * *

test: in vitro; details: human, hela cells, % viability
reported.property: viability at 28.5 h, 10 µM (%)
Reply with just the number (in %).

Some entries whose results are on file:
In [3]: df
Out[3]:
                                   molecule  observed_result
0  CCCCOC(=O)c1c(N)n(-c2ccc(C(=O)O)cc2)c2nc3ccccc3nc12 [CBK265046]             94.6
1  C/C(=C\C(=O)Nc1ccc(O)cc1C(=O)O)c1ccccc1 [CBK265125]              115

Exam item: I'd like to know its viability at 28.5 h, 10 µM. The molecule in question is CC(C)NS(=O)(=O)c1ccc(NS(=O)(=O)c2ccc(F)c(C(=O)O)c2)cc1 [CBK297533]
Marked response: 93.6

Exam item: I'd like to know its viability at 28.5 h, 10 µM. The molecule in question is O=C(O)Cc1ccc(NC(=S)Nc2cccc(Cl)c2Cl)cc1 [CBK267064]
Marked response: 107

Exam item: I'd like to know its viability at 28.5 h, 10 µM. The molecule in question is N#Cc1c(NC(=O)CSc2nnc(N)s2)sc2c1CCCC2 [CBK266649]
Marked response: 99.8

Exam item: I'd like to know its viability at 28.5 h, 10 µM. The molecule in question is OCCn1ncc2c(SC3CCCCC3)ncnc21 [CBK269358]
Marked response: 87.8

Exam item: I'd like to know its viability at 28.5 h, 10 µM. The molecule in question is O=C(CCc1nc2ccccc2c(=O)[nH]1)N1CCN(Cc2ccc(Cl)s2)CC1 [CBK296937]
Marked response: 83.9

From: paper PMC12040169
